- Test system: U2OS
- EXPERIMENTAL_DETAILS: normalized growth rate inhibition value (GR) relative to untreated cells (GR value (dimensionless, 1 = untreated growth)); higher = less growth inhibition
- CONDITIONS: 0.100289 µM; 72 h
Recorded normalized growth rate inhibition value values for a group of compounds are listed next.

Worked cases, normalized growth rate inhibition value given:
Nc1cc(C(F)(F)F)c(-c2cc(N3CCOCC3)nc(N3CCOCC3)n2)cn1	0.77
Cc1cc(Nc2ncc(Cl)c(Nc3ccccc3S(=O)(=O)C(C)C)n2)c(OC(C)C)cc1C1CCNCC1	1.02
COc1cc2c(Oc3ccc4[nH]c(C)cc4c3F)ncnc2cc1OCCCN1CCCC1	0.987
COc1cccc2c1C(=O)c1c(O)c3c(c(O)c1C2=O)C[C@@](O)(C(=O)CO)C[C@@H]3O[C@H]1C[C@H](N)[C@H](O)[C@H](C)O1	0.0816

Bench note: what normalized growth rate inhibition value did CC[C@@]1(O)C(=O)OCc2c1cc1n(c2=O)Cc2cc3c(CN(C)C)c(O)ccc3nc2-1 show?
0.14

Try COc1cc2nccc(Oc3ccc(NC(=O)C4(C(=O)Nc5ccc(F)cc5)CC4)cc3)c2cc1OC [Cabozantinib] next.
0.938

What do you get for CC(C)NC[C@@H](C(=O)N1CCN(c2ncnc3c2[C@H](C)C[C@H]3O)CC1)c1ccc(Cl)cc1 ?
0.885

Origin of the recorded values: the supplement of paper PMC7394473
